assay: Selectivity index, ratio of IC50 for cytotoxicity against African green monkey Vero cells to MIC for antimycobacterial activity against Mycobacterium tuberculosis H37Rv ATCC 27294; type: toxicity, cell-based; conditions: read-out: Selectivity Index
For each entry below, report its selectivity ratio value.

Quick batch: selectivity ratio for everything below.
1. C/C=C/C[C@@H]1NC(=O)[C@H](CC(C)C)N2C(=O)[C@H](CC(C)[C@H]2OC)N(C)C(=O)[C@H](C)NC(=O)[C@H](Cc2ccc(OC)c([N+](=O)[O-])c2)NC(=O)[C@H](CC(C)C)N(C)C(=O)[C@H](Cc2cn(C(C)(C)[C@H](O)COC)c3ccccc23)NC1=O (some centres not stated)
2. C/C=C/C[C@@H]1NC(=O)[C@H](CC(C)C)N2C(=O)[C@H](C[C@H](C)[C@H]2OCC)N(C)C(=O)[C@H](C)NC(=O)[C@H](Cc2ccc(O)c([N+](=O)[O-])c2)NC(=O)[C@H](CC(C)C)N(C)C(=O)[C@H](Cc2cn(C(C)(C)[C@H](O)CCl)c3ccccc23)NC1=O

Output:
3600
> 19000

* * *

assay: Binding affinity to full length Mycobacterium tuberculosis ClpC1 assessed as dissociation constant by SPR analysis
Sorting guide: entries reporting Kd beneath 400 nM go in the True pile, the rest go in the False pile.

| molecule | group |
| --- | --- |
| C/C=C/C[C@@H]1NC(=O)[C@H](CC(C)C)N2C=C(C)C[C@@H](C2=O)N(C)C(=O)[C@H](C)NC(=O)[C@H](Cc2ccc(O)c([N+](=O)[O-])c2)NC(=O)[C@H](CC(C)C)N(C)C(=O)[C@H](Cc2cn(C(C)(C)[C@H]3CO3)c3ccccc23)NC1=O | True |
| C/C=C/C[C@@H]1NC(=O)[C@H](CC(C)C)N2C=C(C)C[C@@H](C2=O)N(C)C(=O)[C@H](C)NC(=O)[C@H](Cc2ccc3oc(=O)[nH]c3c2)NC(=O)[C@H](CC(C)C)N(C)C(=O)[C@H](Cc2cn(C(C)(C)[C@H](O)CCl)c3ccccc23)NC1=O | False |

Task: API: query returns whether the molecule falls strictly under 400 nM in Kd. Query: C/C=C/C[C@@H]1NC(=O)[C@H](CC(C)C)N2C(=O)[C@H](CC(C)[C@H]2OC)N(C)C(=O)[C@H](C)NC(=O)[C@H](Cc2ccc(OC(C)=O)c([N+](=O)[O-])c2)NC(=O)[C@H](CC(C)C)N(C)C(=O)[C@H](Cc2cn(C(C)(C)[C@H]3CO3)c3ccccc23)NC1=O (some centres undefined)
Output: True

* * *

system: Mycobacteroides abscessus; experiment: Antimycobacterial activity against Mycobacterium abscessus ATCC 19977 assessed as reduction in bacterial growth by microplate Alamar blue assay; type: functional
For each entry below, report its MIC value.
One number for each entry, in µM.

Here's what some known entries look like.
| compound | target_or_test_system | quantity | measurement |
| --- | --- | --- | --- |
| C/C=C/C[C@@H]1NC(=O)[C@H](CC(C)C)N2C=C(C)C[C@@H](C2=O)N(C)C(=O)[C@H](C)NC(=O)[C@H](Cc2ccc(O)c([N+](=O)[O-])c2)NC(=O)[C@H](CC(C)C)N(C)C(=O)[C@H](Cc2cn(C(C)(C)[C@H](O)CCl)c3ccccc23)NC1=O | Mycobacteroides abscessus | MIC | 1.1 |
| C/C=C/C[C@@H]1NC(=O)[C@H](CC(C)C)N2C(=O)[C@H](CC(C)[C@H]2OC)N(C)C(=O)[C@H](C)NC(=O)[C@H](Cc2ccc(OC)c([N+](=O)[O-])c2)NC(=O)[C@H](CC(C)C)N(C)C(=O)[C@H](Cc2cn(C(C)(C)[C@H]3CO3)c3ccccc23)N(C)C1=O (stereo not given in full) | Mycobacteroides abscessus | MIC | 2.1 |
| C/C=C/C[C@@H]1NC(=O)[C@H](CC(C)C)N2C=C(C)C[C@@H](C2=O)N(C)C(=O)[C@H](C)NC(=O)[C@H](Cc2ccc3oc(=O)[nH]c3c2)NC(=O)[C@H](CC(C)C)N(C)C(=O)[C@H](Cc2cn(C(C)(C)[C@H](O)CCl)c3ccccc23)NC1=O | Mycobacteroides abscessus | MIC | 2.3 |
| C/C=C/C[C@@H]1NC(=O)[C@H](CC(C)C)N2C=C(C)C[C@@H](C2=O)N(C)C(=O)[C@H](C)NC(=O)[C@H](Cc2ccc(OC)c([N+](=O)[O-])c2)NC(=O)[C@H](CC(C)C)N(C)C(=O)[C@H](Cc2cn(C(C)(C)[C@H]3CO3)c3ccccc23)NC1=O | Mycobacteroides abscessus | MIC | 2.3 |

Continue with the compound presented below.
Task: For the compound C/C=C/C[C@@H]1NC(=O)[C@H](CC(C)C)N2C(=O)[C@H](CC(C)[C@H]2OC)N(C)C(=O)[C@H](C)NC(=O)[C@H](Cc2ccc(OC)c([N+](=O)[O-])c2)NC(=O)[C@H](CC(C)C)N(C)C(=O)[C@H](Cc2cn(C(C)(C)[C@H]3CO3)c3ccccc23)NC1=O (stereo not given in full) , what MIC is on record?
Output: 0.53
